Protein target, amino acids: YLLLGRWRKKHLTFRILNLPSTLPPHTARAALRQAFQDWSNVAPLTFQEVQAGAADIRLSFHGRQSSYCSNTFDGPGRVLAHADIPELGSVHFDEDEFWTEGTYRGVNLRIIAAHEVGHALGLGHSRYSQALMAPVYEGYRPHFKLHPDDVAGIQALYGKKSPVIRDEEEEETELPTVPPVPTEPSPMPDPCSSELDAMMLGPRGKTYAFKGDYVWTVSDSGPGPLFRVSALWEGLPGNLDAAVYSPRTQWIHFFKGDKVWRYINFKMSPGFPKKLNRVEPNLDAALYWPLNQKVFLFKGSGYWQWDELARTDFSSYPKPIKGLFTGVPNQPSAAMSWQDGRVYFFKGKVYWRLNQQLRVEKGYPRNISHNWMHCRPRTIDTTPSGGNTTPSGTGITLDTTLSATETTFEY
Measurement Name: IC50

Kindly note the recorded IC50 for CCCCC[C@H](CC(=O)NO)C(=O)N[C@H](C(=O)N1CCC[C@H]1CO)C(C)C [actinonin] , which is ~10 µM
